src = ChEMBL document CHEMBL6182902

Ki values for the compounds below.
- assaySummary: Inhibition of recombinant N-terminal His-tagged Escherichia coli BL21 NagZ extracted from Escherichia coli BL21 using different concentrations of substrate pNP-GlcNAc by 4-nitrophenolate ion release based spectrophotometric analysis

compound	Ki / µM
O=C(/C=C/c1ccc(Cl)c(Cl)c1)NC(Cc1ccc(Br)cc1)C(=O)O (racemic)	22.4
O=C(/C=C/c1c(Cl)cccc1Cl)N[C@@H](Cc1ccc(I)cc1)C(=O)O	22.2
O=C(/C=C/c1ccc(I)cc1)N[C@@H](Cc1ccc(I)cc1)C(=O)O	14.3
O=C(/C=C/c1ccc(Cl)c(Cl)c1)N[C@@H](Cc1ccc(I)cc1)C(=O)O	3.3
O=C(/C=C/c1ccc(Cl)cc1)N[C@@H](Cc1ccc(I)cc1)C(=O)O	56.1
O=C(N[C@@H](Cc1ccc(I)cc1)C(=O)O)/C(=C/c1ccccc1)c1ccccc1	15.5
O=C(/C=C/c1ccc(Cl)c(Cl)c1)N[C@H](Cc1ccc(Br)cc1)C(=O)O	3.5
O=C(/C=C/c1ccc(Br)cc1)N[C@@H](Cc1ccc(I)cc1)C(=O)O	24.2
O=C(/C=C/c1c[nH]c2ccccc12)N[C@@H](Cc1ccc(I)cc1)C(=O)O	15.5
O=C(/C=C/c1ccc2ccccc2c1)N[C@@H](Cc1ccc(I)cc1)C(=O)O	7.4

----------
- Tested on: Escherichia coli
- assaySummary: Inhibition of recombinant N-terminal His-tagged Escherichia coli BL21 NagZ extracted from Escherichia coli BL21 using pNP-GlcNAc as substrate at 100 uM by absorbance based assay relative to control

smilesString	inhibition
O=C(/C=C/c1ccccc1)N[C@H](Cc1ccc(Br)cc1)C(=O)O	15.9%
O=C(/C=C/c1ccc(I)cc1)N[C@H](Cc1ccc(Br)cc1)C(=O)O	76.1%
CC1(C)CC[C@]2(C(=O)O)CC[C@]3(C)C(=CC[C@@H]4[C@@]5(C)CC[C@H](O)[C@@](C)(CO)[C@@H]5CC[C@]43C)[C@@H]2C1	29.4%

----------
- Tested on: Escherichia coli
- assaySummary: Inhibition of recombinant N-terminal His-tagged Escherichia coli BL21 NagZ extracted from Escherichia coli BL21 using pNP-GlcNAc as substrate at 100 uM by absorbance based assay relative to control
Active and inactive are the calls of the source. No cut-off for these calls is given here.
assayReadout: inhibition

compound	assayReadout	reading
O=C(/C=C/c1c(Cl)cccc1Cl)N[C@@H](Cc1ccc(I)cc1)C(=O)O	inhibition	76.9%
O=C(/C=C/c1ccc(Cl)c(Cl)c1)N[C@@H](Cc1ccc(I)cc1)C(=O)O	inhibition	88%
O=C(/C=C/c1cccc([N+](=O)[O-])c1)N[C@@H](Cc1ccc(I)cc1)C(=O)O	inhibition	42.1%
O=C(CCc1ccccc1)N[C@@H](Cc1ccc(I)cc1)C(=O)O	inhibition	21.5%
O=C(/C=C/c1ccc(Cl)c(Cl)c1)N[C@H](Cc1ccc(Br)cc1)C(=O)O	inhibition	87%
O=C(/C=C/c1ccccc1)N[C@@H](Cc1ccc(I)cc1)C(=O)O	inhibition	20.2%
O=C(/C=C/c1ccc(F)c(Cl)c1)N[C@H](Cc1ccc(Br)cc1)C(=O)O	inhibition	71.6%
O=C(/C=C/c1ccc(F)cc1)NC(Cc1ccc(Br)cc1)C(=O)O (racemic)	inhibition	17.5%
O=C(/C=C/c1ccc(Cl)c(Cl)c1)NC(Cc1ccc(Br)cc1)C(=O)O (racemic)	inhibition	86.1%
COC(=O)[C@H](Cc1ccccc1)NC(=O)/C=C/c1cccc(Cl)c1	inhibition	11.6%
COC(=O)C(Cc1ccc(Br)cc1)NC(=O)/C=C/c1ccc(F)cc1 (racemic)	inhibition	7.2%
CC1(C)[C@@H](O)CC[C@]2(C)[C@H]3C(=O)C=C4[C@H]5C[C@@](C)(C(=O)O)CC[C@]5(C)CC[C@@]4(C)[C@]3(C)CC[C@@H]12	inhibition	69.6%
O=C(O[C@@H]1Cc2c(O)cc(O)cc2O[C@@H]1c1cc(O)c(O)c(O)c1)c1cc(O)c(O)c(O)c1 [EPIGALOCATECHIN GALLATE]	inhibition	51.4%
O=C(/C=C/c1ccc([N+](=O)[O-])o1)N[C@@H](Cc1ccc(I)cc1)C(=O)O	inhibition	48.4%
O=C(/C=C/c1ccc(Br)cc1)N[C@@H](Cc1ccc(I)cc1)C(=O)O	inhibition	81.2%
O=C(/C=C\c1ccccc1)N[C@@H](Cc1ccc(I)cc1)C(=O)O	inhibition	12%
O=C(O[C@@H]1Cc2c(O)cc(O)cc2O[C@@H]1c1ccc(O)c(O)c1)c1cc(O)c(O)c(O)c1 [EPICATECHIN GALLATE]	inhibition	45.1%
O=C(/C=C/c1cccc(Cl)c1)N[C@@H](Cc1ccccc1)C(=O)O	inhibition	19.9%
O=C(/C=C/c1ccc(Cl)cc1)NC(Cc1ccc(Br)cc1)C(=O)O (racemic)	inhibition	37.2%
O=C(/C=C/c1ccc(Cl)c(Cl)c1)NC(Cc1ccc(Cl)cc1)C(=O)O (racemic)	inhibition	77.1%
O=C(/C=C/c1ccc(F)cc1)N[C@@H](Cc1ccc(I)cc1)C(=O)O	inhibition	34.3%
O=C(O)[C@H](Cc1ccc(I)cc1)NC(=O)[C@H]1C[C@@H]1c1ccccc1	inhibition	29.1%
CC1=C(O)C(=O)C=C2C1=CC=C1[C@@]2(C)CC[C@@]2(C)[C@@H]3C[C@](C)(C(=O)O)CC[C@]3(C)CC[C@]12C	inhibition	50%
O=C(/C=C/c1ccc(Cl)c(Cl)c1)N[C@@H](Cc1ccccc1)C(=O)O	inhibition	50.4%
COC(=O)C(Cc1ccc(Br)cc1)NC(=O)/C=C/c1ccc(Cl)cc1 (racemic)	inhibition	inactive
O=C(N[C@@H](Cc1ccc(I)cc1)C(=O)O)/C(=C/c1ccccc1)c1ccccc1	inhibition	86.8%
COC(=O)C(Cc1ccc(Br)cc1)NC(=O)/C=C/c1ccc(Cl)c(Cl)c1 (racemic)	inhibition	inactive
O=C(/C=C/c1ccc(F)c(Cl)c1)N[C@@H](Cc1ccc(I)cc1)C(=O)O	inhibition	72%
O=C(/C=C/c1ccc(O)c(O)c1)O[C@H](Cc1ccc(O)c(O)c1)C(=O)O	inhibition	64.3%
O=C(/C=C/c1ccc(Br)cc1)N[C@@H](Cc1ccccc1)C(=O)O	inhibition	16.9%
O=C(/C=C/c1ccco1)N[C@@H](Cc1ccc(I)cc1)C(=O)O	inhibition	35.8%
O=C(/C=C/c1ccc(Br)cc1)N[C@H](Cc1ccc(Br)cc1)C(=O)O	inhibition	46.5%
O=C(C#Cc1ccccc1)N[C@@H](Cc1ccc(I)cc1)C(=O)O	inhibition	29.7%
O=C(/C=C/c1ccc([N+](=O)[O-])cc1)N[C@@H](Cc1ccc(I)cc1)C(=O)O	inhibition	37.2%
O=C(/C=C/c1ccc(O)c(O)c1)N[C@@H](Cc1ccc(I)cc1)C(=O)O	inhibition	66.5%
COC(=O)[C@H](Cc1ccc(I)cc1)NC(=O)/C=C/c1ccc(F)cc1	inhibition	14%
O=C(/C=C/c1ccc(O)cc1)N[C@@H](Cc1ccc(I)cc1)C(=O)O	inhibition	46.2%

----------
- Test system: Escherichia coli
- assaySummary: Inhibition of recombinant N-terminal His-tagged Escherichia coli BL21 NagZ extracted from Escherichia coli BL21 using pNP-GlcNAc as substrate at 100 uM by absorbance based assay relative to control
inhibition values for the molecules below.

smilesString	studyTarget	quantityUnit	inhibition
O=C(/C=C/c1ccc(Cl)cc1)N[C@@H](Cc1ccc(I)cc1)C(=O)O	Escherichia coli	%	75.7
O=C(/C=C/c1cc(F)c(F)c(F)c1)N[C@@H](Cc1ccc(I)cc1)C(=O)O	Escherichia coli	%	60.3
O=C(/C=C/c1ccc2ccccc2c1)N[C@@H](Cc1ccc(I)cc1)C(=O)O	Escherichia coli	%	87
O=C(/C=C/c1ccc([N+](=O)[O-])o1)N[C@H](Cc1ccc(Br)cc1)C(=O)O	Escherichia coli	%	38.2

----------
- Test system: Escherichia coli
- assaySummary: Inhibition of recombinant N-terminal His-tagged Escherichia coli BL21 NagZ extracted from Escherichia coli BL21 using pNP-GlcNAc as substrate at 100 uM by absorbance based assay relative to control
The source made the active and inactive calls. The rule behind the calls is not given here.
assayReadout: inhibition

compound	reading
C=CCc1ccc(O)c(-c2cc(CC=C)ccc2O)c1	58.9%
O=C(/C=C/c1ccc(Cl)cc1)N[C@H](Cc1ccc(Br)cc1)C(=O)O	49.8%
COC(=O)[C@H](Cc1ccccc1)NC(=O)/C=C/c1ccc(Br)cc1	inactive
O=C(CCc1ccc(Cl)c(Cl)c1)N[C@@H](Cc1ccc(I)cc1)C(=O)O	73.5%
O=C(/C=C/c1c[nH]c2ccccc12)N[C@@H](Cc1ccc(I)cc1)C(=O)O	78.8%
COC(=O)[C@H](Cc1ccc(I)cc1)NC(=O)/C=C/c1ccc(Cl)c(Cl)c1	inactive
O=C(O[C@@H]1Cc2c(O)cc(O)cc2O[C@H]1c1cc(O)c(O)c(O)c1)c1cc(O)c(O)c(O)c1 [GALLOCATECHIN GALLATE]	54.9%
O=C(/C=C/c1ccc(Cl)c(Cl)c1)N[C@@H](Cc1c[nH]c2ccccc12)C(=O)O	68.2%
O=C(/C=C/c1ccc(I)cc1)N[C@@H](Cc1ccc(I)cc1)C(=O)O	85.5%
O=C(/C=C/c1ccc(F)c(F)c1)N[C@@H](Cc1ccc(I)cc1)C(=O)O	30.5%
